# assay name: Pharmacokinetic analysis in rats
# Type: in vivo
# protocol conditions: Wister albino, rat, plasma, po, 10 mg/kg
Where a name gives a salt, the structure may show the parent alone.
observable: half-life (h)
Give bare numbers, in h.

Prompt line: Please look up its half-life: CN(C)[C@@H](CCOc1cccc2ccccc12)c1ccccc1 [DH, Dapoxetine hydrochloride]
Response line: 5.46

* * *

# assay name: Pharmacokinetic analysis in rats
# Format: in vivo
# protocol conditions: Wister albino, rat, plasma, po, 10 mg/kg
Structures can show the parent of a compound that is named as a salt.
observable: Cmax (ng/mL)
Numbers only, in ng/mL.

Prompt line: Please look up its Cmax: CN(C)[C@@H](CCOc1cccc2ccccc12)c1ccccc1 [DH, Dapoxetine hydrochloride]
Response line: 198

* * *

# assay name: Ex vivo skin permeation
# Format: in vitro ADME, rat
# protocol conditions: rat
Structures can show the parent of a compound that is named as a salt.
observable: Papp (×10⁻⁶ cm/s)
Give bare numbers, in ×10⁻⁶ cm/s.

Prompt line: Please look up its Papp: CN(C)[C@@H](CCOc1cccc2ccccc12)c1ccccc1 [DH, Dapoxetine hydrochloride]
Response line: 0.944

* * *

# assay name: Pharmacokinetic analysis in rats
# Format: in vivo
# protocol conditions: Wister albino, rat, plasma, po, 10 mg/kg
Structures can show the parent of a compound that is named as a salt.
observable: AUC(0-t) (ng·h/mL)
Give bare numbers, in ng·h/mL.

Prompt line: Please look up its AUC(0-t): CN(C)[C@@H](CCOc1cccc2ccccc12)c1ccccc1 [DH, Dapoxetine hydrochloride]
Response line: 701

* * *

# assay name: Pharmacokinetic analysis in rats
# Assay type: in vivo
# protocol conditions: Wister albino, rat, plasma, oral, 10 mg/kg
Where a name gives a salt, the structure may show the parent alone.
observable: Cmax
# output: number + unit

Prompt line: Please look up its Cmax: CN(C)[C@@H](CCOc1cccc2ccccc12)c1ccccc1 [DH, Dapoxetine hydrochloride]
Response line: 0.198 µg/mL

* * *

# assay name: Pharmacokinetic analysis in rats
# Format: in vivo
# protocol conditions: Wister albino, rat, plasma, po, 10 mg/kg
Structures can show the parent of a compound that is named as a salt.
observable: Tmax (h)
Numbers only, in h.

Prompt line: Please look up its Tmax: CN(C)[C@@H](CCOc1cccc2ccccc12)c1ccccc1 [DH, Dapoxetine hydrochloride]
Response line: 1.5

* * *

# assay name: Pharmacokinetic analysis in rats
# Format: in vivo
# protocol conditions: Wister albino, rat, plasma, po, 10 mg/kg
Counter-ions that a name gives are not always drawn.
observable: MRT (h)
Numbers only, in h.

Prompt line: Please look up its MRT: CN(C)[C@@H](CCOc1cccc2ccccc12)c1ccccc1 [DH, Dapoxetine hydrochloride]
Response line: 5.74

* * *

# assay name: Pharmacokinetic analysis in rats
# Assay type: in vivo
# protocol conditions: Wister albino, rat, plasma, oral, 10 mg/kg
Structures can show the parent of a compound that is named as a salt.
observable: AUC(0-inf) (ng·h/mL)
Give bare numbers, in ng·h/mL.

Prompt line: Please look up its AUC(0-inf): CN(C)[C@@H](CCOc1cccc2ccccc12)c1ccccc1 [DH, Dapoxetine hydrochloride]
Response line: 734
